System: Escherichia coli TOP10
Test method notes: shrunken log2 fold change of peptide-encoding DNA abundance (4.5 h post-induction vs induction); higher = less antimicrobial activity (less host growth inhibition)
Condition summary: time post-induction: 4.5 h; library: site-saturation at positions 5, 18, 19, 20
Reported shrunken log2 fold change values for a set of sequences
I'd appreciate a reply containing only the number, no unit.

RRIRKRPPRLPRPRPRPPSVPRP :: 0.282
RRIRMRPPRLPRPRPRPLCIPRP :: 0.21
RRIRGRPPRLPRPRPRPHMHPRP :: 0.448
RRIRPRPPRLPRPRPRPMMDPRP :: 0.0321
RRIRMRPPRLPRPRPRPIRKPRP :: 0.553
RRIRNRPPRLPRPRPRPLCVPRP :: -0.197
RRIRSRPPRLPRPRPRPPVHPRP :: 0.0185
RRIRSRPPRLPRPRPRPNASPRP :: 0.233

Proceeding to the next sequence to report its shrunken log2 fold change.
Query `RRIRHRPPRLPRPRPRPSDTPRP` yields shrunken log2 fold change of -1.05

----------
Test system: Escherichia coli TOP10
Test method notes: shrunken log2 fold change of peptide-encoding DNA abundance (4.5 h post-induction vs induction); higher = less antimicrobial activity (less host growth inhibition)
Condition summary: time post-induction: 4.5 h; library: site-saturation at positions 5, 18, 19, 20
Assay metric: shrunken log2 fold change
I'd appreciate a reply containing only the number, no unit.

Examples with their reported shrunken log2 fold change follow.
RRIRCRPPRLPRPRPRPTYHPRP :: -0.815
RRIRFRPPRLPRPRPRPIMVPRP :: -0.104
RRIRLRPPRLPRPRPRPLYTPRP :: -0.461
RRIRFRPPRLPRPRPRPGPCPRP :: 0.0242
RRIRVRPPRLPRPRPRPMTPPRP :: 0.452

Query `RRIRARPPRLPRPRPRPICPPRP` yields shrunken log2 fold change of 0.0597

Query `RRIRTRPPRLPRPRPRPVRAPRP` yields shrunken log2 fold change of 0.514

Query `RRIRRRPPRLPRPRPRPIKSPRP` yields shrunken log2 fold change of -0.254

----------
Test system: Escherichia coli TOP10;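 also: peptides expressed intracellularly from a pBAD plasmid library in pooled LB shake-flask culture, induced with 0.3% L-arabinose, DNA abundance read by NGS, three biological replicates, DESeq2 with apeglm shrinkage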
Test method notes: shrunken log2 fold change of peptide-encoding DNA abundance (4.5 h post-induction vs induction); higher = less antimicrobial activity (less host growth inhibition)
Condition summary: time post-induction: 4.5 h; library: site-saturation at positions 5, 18, 19, 20
Reported shrunken log2 fold change values for a set of sequences

Examples with their reported shrunken log2 fold change follow.
RRIRWRPPRLPRPRPRPGERPRP :: 0.303
RRIRNRPPRLPRPRPRPHWDPRP :: -0.136
RRIRHRPPRLPRPRPRPTNWPRP :: 0.0467
RRIRGRPPRLPRPRPRPRWRPRP :: 0.973
RRIRNRPPRLPRPRPRPIYMPRP :: -0.473
RRIRHRPPRLPRPRPRPDRAPRP :: 0.217
RRIRCRPPRLPRPRPRPVLYPRP :: -0.432
RRIRPRPPRLPRPRPRPFFYPRP :: -0.214
RRIRMRPPRLPRPRPRPYFPPRP :: -0.213
RRIRMRPPRLPRPRPRPTNHPRP :: 0.0232

Tested system Escherichia coli TOP10; shrunken log2 fold change recorded for `RRIRKRPPRLPRPRPRPQMDPRP` was 0.618
